Tested on: RKO
Experiment: Cytotoxicity against human RKO cells assessed as reduction in cell viability after 24 hrs by CCK8 assay
Type: functional, cell-based
*1 amine or outer side, *2 acyl side, *3 side chain or, on linkers, in order; H or OH if unused. Where a SMILES comes first, the peptide text is derived from it. [ ]: non-standard residue; d: D form. Trp(1-(1,1-Me2-allyl)) = C=CC(C)(C)n1cc(C[C@H](N)C(=O)O)c2ccccc21; Tyr(3-NO2) = N[C@@H](Cc1ccc(O)c([N+](=O)[O-])c1)C(=O)O; X3 = CN([C@@H](CC(CO)CO)C(=O)[*:2])[*:1]; Gly(E-crotyl) = C/C=C/C[C@H](N)C(=O)O; NMeMet(O) = CN[C@@H](CCS(C)=O)C(=O)O; NMeL = CN[C@@H](CC(C)C)C(=O)O
PROPERTY_MEASURED: IC50 (µM)
Express it in µM; write the number only.

MOLECULE	QUANTITATIVE_READOUT
C=CC(C)(C)n1cc(C[C@@H]2NC(=O)[C@H](C/C=C/C)NC(=O)[C@H](CC(C)C)NC(=O)[C@H](CC(CO)CO)N(C)C(=O)[C@H](C)NC(=O)[C@H](Cc3ccc(O)c([N+](=O)[O-])c3)NC(=O)[C@H](CC(C)C)N(C)C2=O)c2ccccc21 (cyclo(A[X3]L[Gly(E-crotyl)][Trp(1-(1,1-Me2-allyl))][NMeL][Tyr(3-NO2)]))	41
C=C[C@](C)(CO)n1cc(C[C@@H]2NC(=O)[C@H](C/C=C/C)NC(=O)[C@H](CC(C)C)N3C(=O)[C@H](C[C@H](C)[C@H]3O)N(C)C(=O)[C@H](C)NC(=O)[C@H](Cc3ccc(O)c([N+](=O)[O-])c3)NC(=O)[C@H](CC(C)C)N(C)C2=O)c2ccccc21	19
C=CC(C)(C)n1cc(C[C@@H]2NC(=O)[C@H](C/C=C/C)NC(=O)[C@H](CC(C)C)NC(=O)[C@H](CC[S+](C)[O-])N(C)C(=O)[C@H](C)NC(=O)[C@H](Cc3ccc(O)c([N+](=O)[O-])c3)NC(=O)[C@H](CC(C)C)N(C)C2=O)c2ccccc21 (some centres undefined) (cyclo(A[NMeMet(O)]L[Gly(E-crotyl)][Trp(1-(1,1-Me2-allyl))][NMeL][Tyr(3-NO2)]))	37
COc1cccc2c1C(=O)c1c(O)c3c(c(O)c1C2=O)C[C@@](O)(C(=O)CO)C[C@@H]3O[C@H]1C[C@H](N)[C@H](O)[C@H](C)O1	0.3
C=CC(C)(C)n1cc(C[C@@H]2NC(=O)[C@H](C/C=C/C)NC(=O)[C@H](CC(C)C)N3C(=O)[C@H](C[C@H](C)[C@H]3O)N(C)C(=O)[C@H](C)NC(=O)[C@H](Cc3ccc(O)c([N+](=O)[O-])c3)NC(=O)[C@H](CC(C)C)N(C)C2=O)c2ccccc21	7.5
C=C[C@](C)(CO)n1cc(C[C@@H]2NC(=O)[C@H](C/C=C/C)NC(=O)[C@H](CC(C)C)N3C(=O)[C@H](C[C@@](C)(O)[C@H]3O)N(C)C(=O)[C@H](C)NC(=O)[C@H](Cc3ccc(O)c([N+](=O)[O-])c3)NC(=O)[C@H](CC(C)C)N(C)C2=O)c2ccccc21	22

Lab note: next molecule to report on.
Which IC50 reading was recorded for the molecule C=CC(C)(C)n1cc(C[C@@H]2NC(=O)[C@H](C/C=C/C)NC(=O)[C@H](CC(C)C)N3C(=O)[C@H](C[C@@H](CO)[C@H]3O)N(C)C(=O)[C@H](C)NC(=O)[C@H](Cc3ccc(O)c([N+](=O)[O-])c3)NC(=O)[C@H](CC(C)C)N(C)C2=O)c2ccccc21 ?
7.3
